Hello, the source for this data is PubChem BioAssay (NCI), in case you need it.

Each record here notes measured growth.
- Tested on: HCT-116 colon
- assay-overview: NCI-60 one-dose screen, 48 h (100 = growth as untreated, 0 = no growth, -100 = all killed)
- conditions: 10 µM unless noted
Compounds without any hit were thinned out: in the full panel of roughly 83,000, 20% have a hit.
Please respond with the number in % and leave the unit unwritten.

Solved cases below.
O=C(C(=O)c1cccnc1)c1cccnc1 | 99.8
Cn1c(=O)c2[nH]c(Cc3ccc4c(c3)OCO4)nc2n(C)c1=O | 105
COc1ccc(/C=C2\Cc3c(Br)cccc3C2=O)c(OC)c1 | 15
CCOC(=O)c1ccc(N(CCC(=O)O)C(C)=O)cc1 | 104
CN(C)c1ccc(/C=N/Nc2nnc3n2N=C(c2ccc(Cl)cc2)CS3)cc1 | 99
CC(C)NCCCCCNc1cc(O)cc2cccnc12 | 65.5
N#Cc1c(N)c(C(=O)c2ccc3c(c2)OCCO3)n2c1CCCC2 | 18.6
COc1ccc(/C=C/C(=O)c2ccc(NC(=O)CSc3nnc(-c4ccc(OC)cc4)n3-c3ccccc3)cc2)cc1 | 4.27

The reported value for COc1ccc2nc(C)cc(Nc3ccccc3O)c2c1 in terms of growth is 29.9

The reported value for Oc1c(-c2cc(C(F)(F)F)[nH]n2)cc(Cl)c(OCc2ccc(Cl)cc2)c1-c1ccc(Cl)c(C(F)(F)F)c1 in terms of growth is -23.8

The reported value for COc1ccc(C(=O)c2cc(C)c(OC)c(C)c2)cc1OC(=O)CCl in terms of growth is 6.62

The reported value for Fc1ccc(-c2ccnc3nc(-c4ccncc4)nn23)cc1 in terms of growth is 95.1

The reported value for O=C(Nc1cnc(C(F)(F)F)cn1)c1cc(Cl)ccc1O in terms of growth is 1.13

The reported value for Cc1ccc(/C=C/C(=N/N=C(N)N)c2ccccc2)cc1 in terms of growth is 20.1

The reported value for CCOc1ccc([C@@H]2[C@@H](Oc3ccccc3)C(=O)N2c2cc(OC)c(OC)c(OC)c2)cc1 in terms of growth is -3.96

The reported value for COc1ccc(NC(=O)C2c3ccccc3C(=O)N(CC(C)C)C2c2cccs2)cc1 (stereo not drawn) in terms of growth is 93.3

The reported value for C#CC[C@@H]1C[C@]2(C)[C@H]3CC=C4[C@H]5CC(C)(C)CC[C@]5(C(=O)NCCCCN)CC[C@@]4(C)[C@]3(C)CC[C@H]2C(C)(C)[C@H]1OC(C)=O in terms of growth is -31

The reported value for O=[N+]([O-])c1cccc([I+]c2ccccc2)c1 in terms of growth is 47.7

The reported value for N#Cc1c(NN)n(C2OC(CO)C(O)C2O)c2ncnc(N)c12 (stereo not drawn) in terms of growth is 2.09

The reported value for O=C(Nc1ccc(Br)cc1)Nc1ccccc1Cl in terms of growth is 71.8

The reported value for O=C1OC(c2ccc(-c3ccccc3)cc2)=C/C1=C/c1c(Cl)cccc1Cl in terms of growth is 63

The reported value for Nc1cc2nc3ccccc3oc-2cc1=O in terms of growth is 45.1

The reported value for COc1ccccc1/C=N\NC(=S)Nc1ccc(F)cc1 in terms of growth is 68.7

The reported value for CC(=O)c1c(O)c(C)c(O)c2c1OC1=CC(=O)/C(=C(/C)N)C(=O)C12C (stereo not drawn) in terms of growth is 63.4

The reported value for COc1cc2nccc(Oc3ccc(NC(=O)C4(C(=O)Nc5ccc(F)cc5)CC4)cc3)c2cc1OC(=O)c1ccc(N)cc1 in terms of growth is 23.1

The reported value for O=C(NCC(c1ccsc1)N1CCCCCC1)c1ccc(C(F)(F)F)cc1 (stereo not drawn) in terms of growth is 88.9

---

- Test system: MDA-MB-231 breast
- assay-overview: NCI-60 one-dose screen, 48 h
- conditions: 10 µM unless noted
About 83,000 compounds went through this panel and 20% of them were active in at least one assay; those are over-represented in the sample as a whole. Calls of active or inactive are those of the source. How the source made its calls: active means growth percent below 10; inactive means the rest.
Can you answer with just one of these options? 1.0 for active, 0.0 for inactive

C=CCn1c(SCC(=O)Nc2ccc(/C(C)=N\O)cc2)nnc1-c1cc(-c2ccccc2)nc2ccccc12 | 0.0
COc1cc(/C=C/C(=O)c2c(C)nc3ccccc3c2C)ccc1OCCCOc1cc2c(cc1OC)C(=O)N1CCC[C@H]1C=N2 | 1.0
COCCOCCOCc1n(Cc2ccc3ccccc3n2)c2ccccc2[n+]1Cc1ccc2ccccc2c1 | 1.0
O=C1Cc2c([nH]c3ccc([N+](=O)[O-])cc23)-c2ccccc2N1 | 0.0

With those in mind, consider the next compound.
What did this assay record as the result for Nc1nc2c(c3ncccc13)C(c1ccccc1)Cc1ncccc1-2 (centres undefined) ?
0.0

---

- Tested on: K-562 leukemia
- assay-overview: NCI-60 one-dose screen, 48 h (100 = growth as untreated, 0 = no growth, -100 = all killed)
- conditions: 10 µM unless noted
About 83,000 compounds went through this panel and 20% of them were active in at least one assay; those are over-represented in the sample as a whole.
We label by threshold. Values of growth strictly beneath 80% are Yes. Values of 80% and up are No.

Completed entries (count: 2):
NC(=O)Nc1ccc2ncnc(Nc3cccc(O)c3)c2c1 | No
O=C1Nc2ccccc2/C1=C/c1c[nH]c2ccccc12 | No

Does the reported growth of the following compound sit strictly below 80%? CN(C)CCOc1nc2c3cccnc3cc(-c3cccc(Cl)c3)c2c2ncccc12
Yes

Does the reported growth of the following compound sit strictly below 80%? O=C1OC(c2ccc(-c3ccccc3)cc2)=C/C1=C/c1c(Cl)cccc1Cl
No

Does the reported growth of the following compound sit strictly below 80%? CC1=NC(c2ccc(Cl)cc2)C2=C(N1)/C(=C/c1ccc(Cl)cc1)CCC2 (stereo unspecified)
Yes

Does the reported growth of the following compound sit strictly below 80%? CC(=O)[C@H]1CC[C@H]2[C@@H]3CC[C@H]4CC=CC[C@]4(C)[C@H]3CC[C@]12C
No

---

- Tested on: HS 578T breast
- assay-overview: NCI-60 one-dose screen, 48 h (100 = growth as untreated, 0 = no growth, -100 = all killed)
- conditions: 10 µM
This is part of a sample that, as a whole, favours compounds with a hit. Of some 83,000 tested, about 20% had one in any assay. The source made the active and inactive calls. Rule for the calls: active = growth percent below 10; inactive = the rest.
endpoint-label: growth

CCCCn1cnc(-c2cc(-c3ccccc3)cc(C(F)(F)F)c2)n1 | 101% (inactive)

The reported value for Oc1[nH]c2ccccc2c1/C=c1/ccc2c(c1)N=C(c1ccc(C(F)(F)F)cc1)N=2 in terms of growth is 49.1% (inactive)

The reported value for C[C@@H](C[C@H](CC1CC1)c1ccccc1)c1ccc2ccccc2c1 in terms of growth is 108% (inactive)

The reported value for CC[C@H](Nc1nc(C)nc(N)c1C#N)c1nc2cccc(NCc3ccc(C(=O)NO)cc3)c2c(=O)n1-c1ccccc1 in terms of growth is 21.6% (inactive)

The reported value for Cc1ccc(S(=O)(=O)NC(CCC(=O)Nc2ccc(Cl)cc2)C(=O)Nc2ccc(Cl)cc2)cc1 (centres undefined) in terms of growth is 29.8% (inactive)

The reported value for CC(C)CC(NC(=O)OCC1c2ccccc2-c2ccccc21)C(=O)O (centres undefined) in terms of growth is 115% (inactive)

The reported value for COc1ccc(/C=c2\c(=O)n(-c3ccccc3)c3nn4c(n23)=NNC42CCCCC2)cc1 in terms of growth is 104% (inactive)

The reported value for Nc1c(C(=O)c2ccc(Br)cc2)sc2nc3c(cc12)CCCC3 in terms of growth is 109% (inactive)

The reported value for Fc1ccc2nc(-c3ccc(-c4noc(-c5ccc(Cl)cc5)n4)cc3)[nH]c2c1 in terms of growth is 108% (inactive)

---

- Tested on: DU-145 prostate
- assay-overview: NCI-60 one-dose screen, 48 h (100 = growth as untreated, 0 = no growth, -100 = all killed)
- conditions: 10 µM unless noted
The panel holds about 83,000 compounds, 20% with a hit somewhere; the sample as a whole holds those more often.
We label by threshold. Values of growth strictly beneath 50% are rule met. Values of 50% and up are rule not met.

Completed entries (count: 2):
Cc1ccc(NC(=O)c2nc(S(C)=O)oc2-c2ccc(F)cc2)cc1Nc1nccc(-c2cccnc2)n1 (stereo not given) | rule not met
CC1=C(C(=O)Nc2ccc(F)cc2)C(c2ccccc2)C2=C(CC(C)(C)CC2=O)N1 (stereo not given) | rule not met

Does the reported growth of the following compound sit strictly below 50%? COc1ccc(C2=CC(c3ccc(OC)cc3Br)N3C=CSC3=N2)cc1 (stereo not given)
rule not met

---

- Test system: SNB-19 CNS
- assay-overview: NCI-60 one-dose screen, 48 h (100 = growth as untreated, 0 = no growth, -100 = all killed)
- conditions: 10 µM unless noted
Compounds without any hit were thinned out: in the full panel of roughly 83,000, 20% have a hit.
Classify by measured growth: Yes if it is equal to or exceeds 80%, No if it is smaller.

c1ccc(C(Nc2ccccn2)(c2ccccc2)c2ccccc2)cc1 | No
O=c1cc(N2CCOCC2)oc2c(-c3ccc4c(c3)OCCO4)csc12 | No
CNC(=O)c1cc(Oc2ccc(NC(=O)c3nc(S(C)(=O)=O)n(C)c3-c3ccc(F)cc3)cc2)ccn1 | Yes

Please tell me: is the compound Cc1nc2n[nH]c(N)c2nc1C at or over 80% in terms of growth?
Yes

Please tell me: is the compound CCCCCCCCCC1=NC(C)(C)CN1C(C)(C)CO at or over 80% in terms of growth?
Yes

Please tell me: is the compound Cc1cc(C)c2c(n1)sc1c(Nc3ccc(O)cc3)ncnc12 at or over 80% in terms of growth?
No

Please tell me: is the compound CCCCCCCCCCCC1=NC(C)(C)CN1C(C)(C)CO at or over 80% in terms of growth?
Yes

Please tell me: is the compound O=C(CI)NCCNc1cccc2c(S(=O)(=O)O)cccc12 at or over 80% in terms of growth?
Yes

Please tell me: is the compound O=C1OC(c2ccc(-c3ccccc3)cc2)=C/C1=C/c1c(Cl)cccc1Cl at or over 80% in terms of growth?
Yes

Please tell me: is the compound COc1cc2nccc(Oc3ccc(NC(=O)C4(C(=O)Nc5ccc(F)cc5)CC4)cc3)c2cc1Oc1ccc(N)cn1 at or over 80% in terms of growth?
No
